- test target: KRAS-WT and SOS1 proteins (Homo sapiens)
- Construct: purchased Cisbio 63ADK000CB15PEG
- Sequence (Q07889 1-1333): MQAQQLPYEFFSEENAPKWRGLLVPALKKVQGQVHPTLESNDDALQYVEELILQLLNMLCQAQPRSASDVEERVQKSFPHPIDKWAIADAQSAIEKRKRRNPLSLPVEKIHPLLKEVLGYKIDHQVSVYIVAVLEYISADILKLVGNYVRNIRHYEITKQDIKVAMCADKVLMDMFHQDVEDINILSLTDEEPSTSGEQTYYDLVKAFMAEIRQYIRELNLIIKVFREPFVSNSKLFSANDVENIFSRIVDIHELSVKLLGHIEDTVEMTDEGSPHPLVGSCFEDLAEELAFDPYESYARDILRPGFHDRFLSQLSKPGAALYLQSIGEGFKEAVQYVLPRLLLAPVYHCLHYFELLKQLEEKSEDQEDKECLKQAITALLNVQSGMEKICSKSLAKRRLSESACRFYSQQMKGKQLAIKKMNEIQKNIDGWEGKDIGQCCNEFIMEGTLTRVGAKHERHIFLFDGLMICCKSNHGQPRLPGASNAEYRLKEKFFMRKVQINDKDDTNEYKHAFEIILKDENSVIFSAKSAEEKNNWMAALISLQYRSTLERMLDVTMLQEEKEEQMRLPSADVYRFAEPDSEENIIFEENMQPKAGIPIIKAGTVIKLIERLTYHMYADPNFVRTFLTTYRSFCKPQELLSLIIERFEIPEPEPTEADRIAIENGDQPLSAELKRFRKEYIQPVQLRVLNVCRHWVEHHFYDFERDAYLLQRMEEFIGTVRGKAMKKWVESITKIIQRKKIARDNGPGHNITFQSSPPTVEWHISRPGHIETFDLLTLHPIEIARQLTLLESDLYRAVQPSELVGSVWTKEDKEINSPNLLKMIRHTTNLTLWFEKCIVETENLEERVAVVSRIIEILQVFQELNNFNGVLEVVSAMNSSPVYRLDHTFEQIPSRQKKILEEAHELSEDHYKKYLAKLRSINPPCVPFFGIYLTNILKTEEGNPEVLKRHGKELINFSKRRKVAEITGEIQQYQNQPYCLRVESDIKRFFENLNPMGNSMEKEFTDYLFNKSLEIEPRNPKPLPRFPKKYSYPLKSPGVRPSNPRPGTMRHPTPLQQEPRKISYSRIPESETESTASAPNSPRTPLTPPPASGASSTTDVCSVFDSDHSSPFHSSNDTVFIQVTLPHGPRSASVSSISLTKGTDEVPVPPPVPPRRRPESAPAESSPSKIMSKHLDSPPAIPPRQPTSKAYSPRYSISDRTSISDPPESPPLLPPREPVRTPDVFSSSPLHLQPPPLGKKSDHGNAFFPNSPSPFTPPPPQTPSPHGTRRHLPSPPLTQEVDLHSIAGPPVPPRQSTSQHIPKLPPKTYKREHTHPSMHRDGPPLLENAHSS
- protocol description: KRAS-WT/SOS1 binding assay (HTRF)
- conditions used: Tag1-SOS1 / Tag2-KRAS-WT, 10 μM GTP, read-out: Activity Data in Kras: SOS1 Assay, Wild Type
Listed compounds paired with reported IC50
measurement name: IC50

                         compound_structure  measurement_name  recorded_result
0  COc1cc2c(cc1C1CCN(S(C)(=O)=O)CC1)c(N[C@H](C)c1cccc3c1CCC3(F)F)nc1ccnn12              IC50    100 to 500 nM
1  COc1cc2c(cc1-c1ccc(=O)n(C)c1)c(N[C@H](C)c1cccc3c1CCC3(F)F)nc1ccnn12              IC50         < 100 nM
2  COc1cc2c(cc1C1CCN(C(C)=O)CC1)c(N[C@H](C)c1cccc3c1CCC3(F)F)nc1ccnn12              IC50    100 to 500 nM
3  Cc1nc(N[C@H](C)c2cccc(C(F)(F)CO)c2)c2cc(-c3ccc(=O)n(C)c3)c3c(cnn3C)c2n1              IC50         < 100 nM
4  COc1cc2c(cc1C1CCOCC1)c(N[C@H](C)c1cccc(C(F)(F)CO)c1)nc1ccnn12              IC50    100 to 500 nM
5  C[C@@H](Nc1nc2c(F)cnn2c2cc(=O)n(C3CC(F)(F)C3)cc12)c1cccc(C(F)(F)CO)c1              IC50         < 100 nM
6  Cc1nc(N[C@H](C)c2cccc(C(F)(F)CO)c2)c2cc(O[C@H]3CCN(C)C3)c3c(cnn3C)c2n1              IC50         < 100 nM
